Entry source: ChEMBL document CHEMBL5053535

TEST_DETAILS: Toxicity in zebra fish embryos assessed as lethality at 1.5 uM measured after 96 hrs relative to control
Type: organism-based, Danio rerio
TEST_SETTINGS: zebrafish, in vivo, read-out: Activity
READOUT_KIND: mortality at 96 h, 1.5 µM (%)

COC(=O)c1cccc(-c2cnc3[nH]cc(-c4cccnc4)c3c2)c1 :: 100

====

Overview of reported Activity across a group of compounds:
TARGET: Serine/threonine-protein kinase Nek1 (Homo sapiens) (UniProt Q96PY6)
Sequence (whole entry): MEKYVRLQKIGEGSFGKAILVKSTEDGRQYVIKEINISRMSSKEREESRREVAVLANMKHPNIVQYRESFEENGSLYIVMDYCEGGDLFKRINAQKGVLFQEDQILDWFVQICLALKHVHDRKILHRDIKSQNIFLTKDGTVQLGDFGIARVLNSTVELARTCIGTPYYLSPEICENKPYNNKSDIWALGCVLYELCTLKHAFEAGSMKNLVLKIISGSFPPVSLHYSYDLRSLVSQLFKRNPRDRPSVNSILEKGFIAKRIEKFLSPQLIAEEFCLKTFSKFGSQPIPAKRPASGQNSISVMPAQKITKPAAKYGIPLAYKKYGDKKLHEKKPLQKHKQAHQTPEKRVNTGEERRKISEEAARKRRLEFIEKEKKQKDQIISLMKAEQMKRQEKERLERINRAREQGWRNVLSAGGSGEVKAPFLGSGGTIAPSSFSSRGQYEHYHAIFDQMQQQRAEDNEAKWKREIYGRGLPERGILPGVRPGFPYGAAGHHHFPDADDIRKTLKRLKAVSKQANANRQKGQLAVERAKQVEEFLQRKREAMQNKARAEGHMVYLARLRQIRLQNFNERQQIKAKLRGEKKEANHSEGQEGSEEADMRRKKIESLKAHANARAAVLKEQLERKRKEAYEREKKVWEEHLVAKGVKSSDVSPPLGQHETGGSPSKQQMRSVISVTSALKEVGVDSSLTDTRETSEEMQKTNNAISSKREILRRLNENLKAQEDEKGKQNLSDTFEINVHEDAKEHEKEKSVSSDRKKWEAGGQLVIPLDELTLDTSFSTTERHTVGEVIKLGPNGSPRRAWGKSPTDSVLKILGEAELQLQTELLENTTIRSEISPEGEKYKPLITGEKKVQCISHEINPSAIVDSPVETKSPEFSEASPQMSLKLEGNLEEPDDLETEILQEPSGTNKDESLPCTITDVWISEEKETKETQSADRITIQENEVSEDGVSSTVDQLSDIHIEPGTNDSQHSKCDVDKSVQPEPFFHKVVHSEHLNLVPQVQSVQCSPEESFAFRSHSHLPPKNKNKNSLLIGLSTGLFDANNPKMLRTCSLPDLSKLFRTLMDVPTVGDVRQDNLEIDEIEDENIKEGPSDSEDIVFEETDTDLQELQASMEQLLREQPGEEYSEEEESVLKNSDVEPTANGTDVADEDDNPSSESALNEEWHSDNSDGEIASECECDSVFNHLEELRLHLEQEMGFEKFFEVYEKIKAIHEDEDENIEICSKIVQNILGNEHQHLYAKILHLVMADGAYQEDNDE
TEST_DETAILS: Inhibition of human NEK1 using myelin basic protein as substrate assessed as residual activity at 1 uM in presence of [gamma-33P]-ATP by radiometric hotspot kinase assay relative to control
READOUT_KIND: Activity (%)

COC(=O)c1cccc(-c2cnc3[nH]cc(-c4cccnc4)c3c2)c1 :: -0.6
Cc1cc(Nc2ccnc(N(C)Cc3ccccc3)n2)n[nH]1 :: 91.8
Cc1cc(Nc2ccnc(Nc3cccc([N+](=O)[O-])c3)n2)n[nH]1 :: 36.6
N#Cc1cccc(-c2cnc3[nH]cc(-c4ccccc4)c3c2)c1 :: 52.3
Cc1cc(Nc2ccnc(N3CCN(C)CC3)n2)n[nH]1 :: 98.4
c1ccc(Nc2nccc(Nc3cc(-c4ccccc4)[nH]n3)n2)cc1 :: 65.9
Cc1cc(Nc2ccnc(NC3CC3)n2)n[nH]1 :: 95.1
Cc1ccc(CNc2nccc(Nc3cc(C)[nH]n3)n2)cc1 :: 86.8
COC(=O)c1cccc(-c2cnc3[nH]cc(-c4ccccc4OC)c3c2)c1 :: 60.9
COC(=O)c1cccc(-c2cnc3[nH]cc(-c4cncnc4)c3c2)c1 :: 5.89
Cc1cc(Nc2ccnc(NCc3ccccn3)n2)n[nH]1 :: 90.8
COC(=O)c1cccc(-c2cnc3[nH]cc(-c4cccc(OC)c4)c3c2)c1 :: 12.4
N#Cc1cccc(-c2cnc3[nH]cc(-c4cccnc4)c3c2)c1 :: 17.4
COC(=O)c1cccc(-c2cnc3[nH]cc(-c4ccccc4)c3c2)c1 :: 7.31
Cc1cc(Nc2ccnc(Nc3cccc4ccccc34)n2)n[nH]1 :: 90.1
COC(=O)c1cccc(-c2cnc3[nH]cc(-c4ccncc4)c3c2)c1 :: 13
COC(=O)c1cccc(-c2cnc3[nH]cc(-c4cccc(C)c4)c3c2)c1 :: 46.4

====

Listing: Activity of selected molecules
TARGET: Vascular endothelial growth factor receptor 2 (Homo sapiens) (UniProt P35968)
Sequence (P35968 whole entry, the tested form may be a part): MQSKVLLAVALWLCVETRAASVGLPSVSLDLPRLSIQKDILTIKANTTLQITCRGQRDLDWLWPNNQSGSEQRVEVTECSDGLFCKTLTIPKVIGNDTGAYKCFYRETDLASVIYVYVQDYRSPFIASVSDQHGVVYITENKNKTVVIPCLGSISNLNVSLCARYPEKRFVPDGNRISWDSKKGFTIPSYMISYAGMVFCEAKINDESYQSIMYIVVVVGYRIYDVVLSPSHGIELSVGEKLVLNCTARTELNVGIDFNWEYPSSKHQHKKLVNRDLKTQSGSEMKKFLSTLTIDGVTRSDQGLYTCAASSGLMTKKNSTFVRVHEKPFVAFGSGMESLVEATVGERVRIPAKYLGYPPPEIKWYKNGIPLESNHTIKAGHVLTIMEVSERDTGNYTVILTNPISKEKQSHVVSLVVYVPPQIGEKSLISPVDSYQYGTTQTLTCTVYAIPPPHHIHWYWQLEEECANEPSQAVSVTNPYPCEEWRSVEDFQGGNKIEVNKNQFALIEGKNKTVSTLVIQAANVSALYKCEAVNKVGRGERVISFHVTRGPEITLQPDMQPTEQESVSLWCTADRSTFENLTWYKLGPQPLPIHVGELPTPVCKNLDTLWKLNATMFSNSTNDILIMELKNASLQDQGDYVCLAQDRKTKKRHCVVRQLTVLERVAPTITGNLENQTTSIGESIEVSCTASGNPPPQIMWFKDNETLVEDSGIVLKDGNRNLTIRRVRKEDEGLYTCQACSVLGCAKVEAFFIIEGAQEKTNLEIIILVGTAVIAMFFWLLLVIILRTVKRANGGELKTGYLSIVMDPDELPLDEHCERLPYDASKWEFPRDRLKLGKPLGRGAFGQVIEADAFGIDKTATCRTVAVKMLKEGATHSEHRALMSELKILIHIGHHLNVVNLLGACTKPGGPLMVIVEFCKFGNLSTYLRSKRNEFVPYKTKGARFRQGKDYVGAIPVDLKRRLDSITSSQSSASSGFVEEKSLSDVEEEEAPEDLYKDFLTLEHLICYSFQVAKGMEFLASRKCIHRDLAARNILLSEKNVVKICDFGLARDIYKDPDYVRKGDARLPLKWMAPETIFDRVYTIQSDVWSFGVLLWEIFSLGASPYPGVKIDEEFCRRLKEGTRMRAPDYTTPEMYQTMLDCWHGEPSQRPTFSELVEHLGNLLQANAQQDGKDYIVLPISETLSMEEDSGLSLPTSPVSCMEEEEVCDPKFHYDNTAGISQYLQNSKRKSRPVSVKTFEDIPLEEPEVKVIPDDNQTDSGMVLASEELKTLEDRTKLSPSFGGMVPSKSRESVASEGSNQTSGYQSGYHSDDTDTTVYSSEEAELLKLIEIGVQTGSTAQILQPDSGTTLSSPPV
TEST_DETAILS: Inhibition of human recombinant C-terminal His6 tagged VEGFR2 (789 to 1356 residues) expressed in baculovirus infected insect cells assessed as residual activity at 1 uM pretreated for 20 mins followed by [33P]-ATP addition measured after 120 mins by radiometric hotspot kinase assay relative to control
TEST_SETTINGS: time 140.0 min
READOUT_KIND: Activity (%)

N#Cc1cccc(-c2cnc3[nH]cc(-c4cccnc4)c3c2)c1 :: 35
COC(=O)c1cccc(-c2cnc3[nH]cc(-c4cccc(OC)c4)c3c2)c1 :: 94.1
COC(=O)c1cccc(-c2cnc3[nH]cc(-c4cccnc4)c3c2)c1 :: 34.3
COC(=O)c1cccc(-c2cnc3[nH]cc(-c4ccncc4)c3c2)c1 :: 79.4
COC(=O)c1cccc(-c2cnc3[nH]cc(-c4ccccc4)c3c2)c1 :: 97.2
COC(=O)c1cccc(-c2cnc3[nH]cc(-c4cncnc4)c3c2)c1 :: 61.3

====

Catalogue of log10 of solubility readings, one per entry.
TEST_DETAILS: Solubility of the compound in DMEM with 1% DMSO by DAD-HPLC based shake flask method
Type: physicochemical
READOUT_KIND: log10 of solubility (log10 of the value in µM)

COC(=O)c1cccc(-c2cnc3[nH]cc(-c4cccc(OC)c4)c3c2)c1 :: 0.30
COC(=O)c1cccc(-c2cnc3[nH]cc(-c4ccccc4)c3c2)c1 :: 0.64
COC(=O)c1cccc(-c2cnc3[nH]cc(-c4ccncc4)c3c2)c1 :: 1.53
COC(=O)c1cccc(-c2cnc3[nH]cc(-c4cncnc4)c3c2)c1 :: 1.46
N#Cc1cccc(-c2cnc3[nH]cc(-c4cccnc4)c3c2)c1 :: 0.76
COC(=O)c1cccc(-c2cnc3[nH]cc(-c4cccnc4)c3c2)c1 :: 0.63

====

TEST_DETAILS: Solubility of the compound in E3 medium with 0.2% DMSO by DAD-HPLC based shake flask method
Format: physicochemical
solubility for assorted compounds
READOUT_KIND: solubility (µM)

COC(=O)c1cccc(-c2cnc3[nH]cc(-c4cccc(OC)c4)c3c2)c1 :: 1
COC(=O)c1cccc(-c2cnc3[nH]cc(-c4cncnc4)c3c2)c1 :: 4.6
COC(=O)c1cccc(-c2cnc3[nH]cc(-c4ccccc4)c3c2)c1 :: 2.5
COC(=O)c1cccc(-c2cnc3[nH]cc(-c4ccncc4)c3c2)c1 :: 30.9
N#Cc1cccc(-c2cnc3[nH]cc(-c4cccnc4)c3c2)c1 :: 7.2
COC(=O)c1cccc(-c2cnc3[nH]cc(-c4cccnc4)c3c2)c1 :: 1.9

====

TARGET: Serine/threonine-protein kinase Nek5 (Homo sapiens)
TEST_DETAILS: Inhibition of human recombinant NEK5 assessed as residual activity at 1 uM pretreated for 20 mins followed by [33P]-ATP addition measured after 120 mins by radiometric hotspot kinase assay relative to control
TEST_SETTINGS: time 140.0 min
Response field label takes TRUE when Activity is strictly below 30% and FALSE in all other cases.

COC(=O)c1cccc(-c2cnc3[nH]cc(-c4cccc(OC)c4)c3c2)c1 :: FALSE
COC(=O)c1cccc(-c2cnc3[nH]cc(-c4ccncc4)c3c2)c1 :: FALSE
COC(=O)c1cccc(-c2cnc3[nH]cc(-c4cncnc4)c3c2)c1 :: TRUE
N#Cc1cccc(-c2cnc3[nH]cc(-c4cccnc4)c3c2)c1 :: TRUE
COC(=O)c1cccc(-c2cnc3[nH]cc(-c4ccccc4)c3c2)c1 :: FALSE
COC(=O)c1cccc(-c2cnc3[nH]cc(-c4cccnc4)c3c2)c1 :: TRUE

====

TARGET: Serine/threonine-protein kinase Nek1 (Homo sapiens)
Sequence (whole entry): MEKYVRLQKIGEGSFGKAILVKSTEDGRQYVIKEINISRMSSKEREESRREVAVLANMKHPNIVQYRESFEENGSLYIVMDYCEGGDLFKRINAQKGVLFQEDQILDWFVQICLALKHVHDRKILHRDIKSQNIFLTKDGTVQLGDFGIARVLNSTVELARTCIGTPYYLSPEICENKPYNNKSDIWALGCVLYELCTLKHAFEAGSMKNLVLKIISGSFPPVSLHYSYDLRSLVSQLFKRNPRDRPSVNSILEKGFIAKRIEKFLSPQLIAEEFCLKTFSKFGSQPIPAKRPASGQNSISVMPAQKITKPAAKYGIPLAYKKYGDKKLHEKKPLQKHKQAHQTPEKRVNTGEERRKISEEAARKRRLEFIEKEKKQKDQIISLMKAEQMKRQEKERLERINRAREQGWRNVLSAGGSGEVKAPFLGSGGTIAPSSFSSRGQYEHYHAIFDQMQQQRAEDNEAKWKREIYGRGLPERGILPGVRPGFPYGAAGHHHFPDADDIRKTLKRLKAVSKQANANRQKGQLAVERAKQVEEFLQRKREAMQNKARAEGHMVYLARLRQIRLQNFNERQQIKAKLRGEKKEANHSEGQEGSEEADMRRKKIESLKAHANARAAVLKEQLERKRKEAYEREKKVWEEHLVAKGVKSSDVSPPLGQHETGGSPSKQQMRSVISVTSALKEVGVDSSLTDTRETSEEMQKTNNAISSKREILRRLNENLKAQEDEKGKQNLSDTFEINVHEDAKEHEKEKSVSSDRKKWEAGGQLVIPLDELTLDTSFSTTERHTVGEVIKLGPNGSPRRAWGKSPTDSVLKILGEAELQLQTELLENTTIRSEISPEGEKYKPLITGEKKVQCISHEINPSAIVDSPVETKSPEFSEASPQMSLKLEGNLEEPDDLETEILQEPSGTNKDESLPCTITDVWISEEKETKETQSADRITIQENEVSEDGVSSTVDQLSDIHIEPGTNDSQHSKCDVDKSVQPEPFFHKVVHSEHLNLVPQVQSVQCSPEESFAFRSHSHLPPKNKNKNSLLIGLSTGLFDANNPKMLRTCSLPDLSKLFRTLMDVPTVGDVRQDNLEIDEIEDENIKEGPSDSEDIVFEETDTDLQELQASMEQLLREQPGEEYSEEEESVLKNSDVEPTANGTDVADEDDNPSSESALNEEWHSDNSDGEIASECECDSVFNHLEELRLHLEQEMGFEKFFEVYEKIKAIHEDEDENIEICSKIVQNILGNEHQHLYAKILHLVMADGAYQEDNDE
TEST_DETAILS: Inhibition of human NEK1 using myelin basic protein as substrate assessed as residual activity at 1 uM in presence of [gamma-33P]-ATP by radiometric hotspot kinase assay relative to control
Note to self: values exactly at 60% are satisfied. So Activity at or above 60% is satisfied, below is not satisfied.

Cc1cc(Nc2ccnc(NCc3ccccc3)n2)n[nH]1 :: satisfied
N#Cc1cccc(-c2cnc3[nH]cc(-c4ccncc4)c3c2)c1 :: satisfied
COCCNc1nccc(Nc2cc(C)[nH]n2)n1 :: satisfied
Cc1cc(Nc2ccnc(NCc3ccc4c(c3)OCO4)n2)n[nH]1 :: satisfied
c1ccc(-c2cnc3[nH]cc(-c4ccccc4)c3c2)cc1 :: not satisfied
COC(=O)c1cccc(-c2cnc3[nH]cc(-c4ccc(C)cc4)c3c2)c1 :: not satisfied
Cc1cc(Nc2ccnc(Nc3ccccc3C)n2)n[nH]1 :: satisfied
O=[N+]([O-])c1cccc(Nc2nccc(Nc3cc(C4CC4)[nH]n3)n2)c1 :: not satisfied
Cc1cc(Nc2ccnc(NCc3cccnc3)n2)n[nH]1 :: satisfied
N#Cc1cccc(-c2cnc3[nH]cc(Br)c3c2)c1 :: satisfied
